Data provenance: ChEMBL document CHEMBL3885861

species on record: Rattus norvegicus; experiment: Open TG-GATES - Regimen: Single; assay type: toxicity, organism-based, Sprague-Dawley; design: regimen Single, gender Male, age 6 weeks; conditions: in vivo, po, 100 mg/kg, 9 h, tissue Plasma, route gavage, dose level Low
property label: ALP

1. CN/C(=N/CCSCc1nc[nH]c1C)NC#N: 890.8 IU/L
2. Cc1nnc2n1-c1ccc(Cl)cc1C(c1ccccc1Cl)=NC2: 1617.4 IU/L
3. COC(=O)C1=C(C)NC(C)=C(C(=O)OC)C1c1ccccc1[N+](=O)[O-]: 1305.6 IU/L
4. O=C(OC[C@H]1O[C@@H](OC(=O)c2cc(O)c(O)c(OC(=O)c3cc(O)c(O)c(O)c3)c2)[C@H](OC(=O)c2cc(O)c(O)c(OC(=O)c3cc(O)c(O)c(O)c3)c2)[C@@H](OC(=O)c2cc(O)c(O)c(OC(=O)c3cc(O)c(O)c(O)c3)c2)[C@@H]1OC(=O)c1cc(O)c(O)c(OC(=O)c2cc(O)c(O)c(O)c2)c1)c1cc(O)c(O)c(OC(=O)c2cc(O)c(O)c(O)c2)c1: 837.8 IU/L
5. CNC(=C[N+](=O)[O-])NCCSCc1ccc(CN(C)C)o1: 835.8 IU/L

###

organism: Rattus norvegicus; experiment: Open TG-GATES - Regimen: Daily Repeat; format: toxicity, organism-based, Sprague-Dawley; design: regimen Daily Repeat, gender Male, age 6 weeks; conditions: in vivo, po, 100 mg/kg, 72 h, tissue Blood, route gavage, dose level Low, time 3 day
property label: Plat (x10_4/uL)

1. CN/C(=N/CCSCc1nc[nH]c1C)NC#N [CIMETIDINE]: 127.7
2. CCOc1ccc(NC(C)=O)cc1 [PHENACETIN]: 116.5
3. CNC(=C[N+](=O)[O-])NCCSCc1ccc(CN(C)C)o1 [RANITIDINE]: 129.9
4. O=C(OC[C@H]1O[C@@H](OC(=O)c2cc(O)c(O)c(OC(=O)c3cc(O)c(O)c(O)c3)c2)[C@H](OC(=O)c2cc(O)c(O)c(OC(=O)c3cc(O)c(O)c(O)c3)c2)[C@@H](OC(=O)c2cc(O)c(O)c(OC(=O)c3cc(O)c(O)c(O)c3)c2)[C@@H]1OC(=O)c1cc(O)c(O)c(OC(=O)c2cc(O)c(O)c(O)c2)c1)c1cc(O)c(O)c(OC(=O)c2cc(O)c(O)c(O)c2)c1 [TANNIC ACID]: 111.4
5. Cc1nnc2n1-c1ccc(Cl)cc1C(c1ccccc1Cl)=NC2 [TRIAZOLAM]: 117.9
6. COC(=O)C1=C(C)NC(C)=C(C(=O)OC)C1c1ccccc1[N+](=O)[O-] [NIFEDIPINE]: 130.7

###

Plat for assorted compounds
species on record: Rattus norvegicus; test: Open TG-GATES - Regimen: Daily Repeat; format: toxicity, organism-based, Sprague-Dawley; design: regimen Daily Repeat, gender Male, age 6 weeks; conditions: in vivo, po, 100 mg/kg, […], tissue Blood, route gavage, dose level Low, time 7 day
property label: Plat (x10_4/uL)

1. COC(=O)C1=C(C)NC(C)=C(C(=O)OC)C1c1ccccc1[N+](=O)[O-]: 125.1
2. CNC(=C[N+](=O)[O-])NCCSCc1ccc(CN(C)C)o1: 127.2
3. Cc1nnc2n1-c1ccc(Cl)cc1C(c1ccccc1Cl)=NC2: 116.7
4. O=C(OC[C@H]1O[C@@H](OC(=O)c2cc(O)c(O)c(OC(=O)c3cc(O)c(O)c(O)c3)c2)[C@H](OC(=O)c2cc(O)c(O)c(OC(=O)c3cc(O)c(O)c(O)c3)c2)[C@@H](OC(=O)c2cc(O)c(O)c(OC(=O)c3cc(O)c(O)c(O)c3)c2)[C@@H]1OC(=O)c1cc(O)c(O)c(OC(=O)c2cc(O)c(O)c(O)c2)c1)c1cc(O)c(O)c(OC(=O)c2cc(O)c(O)c(O)c2)c1: 122.5
5. CCOc1ccc(NC(C)=O)cc1: 123.3
6. CN/C(=N/CCSCc1nc[nH]c1C)NC#N: 126

###

Entries and their measured BUN follow.
organism: Rattus norvegicus; experiment: Open TG-GATES - Regimen: Daily Repeat; format: toxicity, organism-based, Sprague-Dawley; set-up: regimen Daily Repeat, gender Male, age 6 weeks; details: in vivo, po, 100 mg/kg, […], tissue Plasma, route gavage, dose level Low, time 28 day
property label: BUN

1) CN/C(=N/CCSCc1nc[nH]c1C)NC#N: 18.6 mg/dL
2) CCOc1ccc(NC(C)=O)cc1: 15.6 mg/dL
3) COC(=O)C1=C(C)NC(C)=C(C(=O)OC)C1c1ccccc1[N+](=O)[O-]: 17.2 mg/dL
4) O=C(OC[C@H]1O[C@@H](OC(=O)c2cc(O)c(O)c(OC(=O)c3cc(O)c(O)c(O)c3)c2)[C@H](OC(=O)c2cc(O)c(O)c(OC(=O)c3cc(O)c(O)c(O)c3)c2)[C@@H](OC(=O)c2cc(O)c(O)c(OC(=O)c3cc(O)c(O)c(O)c3)c2)[C@@H]1OC(=O)c1cc(O)c(O)c(OC(=O)c2cc(O)c(O)c(O)c2)c1)c1cc(O)c(O)c(OC(=O)c2cc(O)c(O)c(O)c2)c1: 20.2 mg/dL
5) CNC(=C[N+](=O)[O-])NCCSCc1ccc(CN(C)C)o1: 17.2 mg/dL
6) Cc1nnc2n1-c1ccc(Cl)cc1C(c1ccccc1Cl)=NC2: 15.2 mg/dL

###

organism: Rattus norvegicus; assay: Open TG-GATES - Regimen: Single; format: toxicity, organism-based, Sprague-Dawley; set-up: regimen Single, gender Male, age 6 weeks; conditions: in vivo, po, 100 mg/kg, 24 h, tissue Plasma, route gavage, dose level Low
property label: Na (meq/L)

1. COC(=O)C1=C(C)NC(C)=C(C(=O)OC)C1c1ccccc1[N+](=O)[O-]: 146
2. CNC(=C[N+](=O)[O-])NCCSCc1ccc(CN(C)C)o1: 140.2
3. O=C(OC[C@H]1O[C@@H](OC(=O)c2cc(O)c(O)c(OC(=O)c3cc(O)c(O)c(O)c3)c2)[C@H](OC(=O)c2cc(O)c(O)c(OC(=O)c3cc(O)c(O)c(O)c3)c2)[C@@H](OC(=O)c2cc(O)c(O)c(OC(=O)c3cc(O)c(O)c(O)c3)c2)[C@@H]1OC(=O)c1cc(O)c(O)c(OC(=O)c2cc(O)c(O)c(O)c2)c1)c1cc(O)c(O)c(OC(=O)c2cc(O)c(O)c(O)c2)c1: 138
4. Cc1nnc2n1-c1ccc(Cl)cc1C(c1ccccc1Cl)=NC2: 141.2
5. CN/C(=N/CCSCc1nc[nH]c1C)NC#N: 140

###

species on record: Rattus norvegicus; experiment: Open TG-GATES - Regimen: Single; format: toxicity, organism-based, Sprague-Dawley; set-up: regimen Single, gender Male, age 6 weeks; settings: in vivo, po, 1000 mg/kg, 3 h, tissue Blood, route gavage, dose level High
Here, each record is paired with measured Neu data.
property label: Neu (%)

1) O=C(OC[C@H]1O[C@@H](OC(=O)c2cc(O)c(O)c(OC(=O)c3cc(O)c(O)c(O)c3)c2)[C@H](OC(=O)c2cc(O)c(O)c(OC(=O)c3cc(O)c(O)c(O)c3)c2)[C@@H](OC(=O)c2cc(O)c(O)c(OC(=O)c3cc(O)c(O)c(O)c3)c2)[C@@H]1OC(=O)c1cc(O)c(O)c(OC(=O)c2cc(O)c(O)c(O)c2)c1)c1cc(O)c(O)c(OC(=O)c2cc(O)c(O)c(O)c2)c1: 12.8
2) Cc1nnc2n1-c1ccc(Cl)cc1C(c1ccccc1Cl)=NC2: 23
3) CN/C(=N/CCSCc1nc[nH]c1C)NC#N: 18.6
4) COC(=O)C1=C(C)NC(C)=C(C(=O)OC)C1c1ccccc1[N+](=O)[O-]: 24.2
5) CNC(=C[N+](=O)[O-])NCCSCc1ccc(CN(C)C)o1: 17.4

###

organism: Rattus norvegicus; assay: Open TG-GATES - Regimen: Daily Repeat; assay type: toxicity, organism-based, Sprague-Dawley; set-up: regimen Daily Repeat, gender Male, age 6 weeks; conditions: in vivo, po, 300 mg/kg, 72 h, tissue Blood, route gavage, dose level Middle, time 3 day
# Fbg annotations
property label: Fbg (mg/dL)

1. O=C(OC[C@H]1O[C@@H](OC(=O)c2cc(O)c(O)c(OC(=O)c3cc(O)c(O)c(O)c3)c2)[C@H](OC(=O)c2cc(O)c(O)c(OC(=O)c3cc(O)c(O)c(O)c3)c2)[C@@H](OC(=O)c2cc(O)c(O)c(OC(=O)c3cc(O)c(O)c(O)c3)c2)[C@@H]1OC(=O)c1cc(O)c(O)c(OC(=O)c2cc(O)c(O)c(O)c2)c1)c1cc(O)c(O)c(OC(=O)c2cc(O)c(O)c(O)c2)c1 [TANNIC ACID]: 240.8
2. CNC(=C[N+](=O)[O-])NCCSCc1ccc(CN(C)C)o1 [RANITIDINE]: 234.4
3. CCOc1ccc(NC(C)=O)cc1 [PHENACETIN]: 290.8
4. CN/C(=N/CCSCc1nc[nH]c1C)NC#N [CIMETIDINE]: 228.2
5. COC(=O)C1=C(C)NC(C)=C(C(=O)OC)C1c1ccccc1[N+](=O)[O-] [NIFEDIPINE]: 277
6. Cc1nnc2n1-c1ccc(Cl)cc1C(c1ccccc1Cl)=NC2 [TRIAZOLAM]: 302
